Target: BAP-tagged AMPK α2β2γ1 (Homo sapiens, UniProt O43741+P54619+P54646)
Construct: Recombinant full-length AMPK heterotrimeric complexes α1β1γ1, α1β2γ1, α1β2γ3, α2β1γ1, α2β2γ1 and α2β2γ3 were cloned into a tricistronic vector system; 6X-His (N); made in house; host or cells: E. coli BL21-CodonPlus (DE3)-RIPL, co-expressed with BirA
Sequence (P54646 whole entry): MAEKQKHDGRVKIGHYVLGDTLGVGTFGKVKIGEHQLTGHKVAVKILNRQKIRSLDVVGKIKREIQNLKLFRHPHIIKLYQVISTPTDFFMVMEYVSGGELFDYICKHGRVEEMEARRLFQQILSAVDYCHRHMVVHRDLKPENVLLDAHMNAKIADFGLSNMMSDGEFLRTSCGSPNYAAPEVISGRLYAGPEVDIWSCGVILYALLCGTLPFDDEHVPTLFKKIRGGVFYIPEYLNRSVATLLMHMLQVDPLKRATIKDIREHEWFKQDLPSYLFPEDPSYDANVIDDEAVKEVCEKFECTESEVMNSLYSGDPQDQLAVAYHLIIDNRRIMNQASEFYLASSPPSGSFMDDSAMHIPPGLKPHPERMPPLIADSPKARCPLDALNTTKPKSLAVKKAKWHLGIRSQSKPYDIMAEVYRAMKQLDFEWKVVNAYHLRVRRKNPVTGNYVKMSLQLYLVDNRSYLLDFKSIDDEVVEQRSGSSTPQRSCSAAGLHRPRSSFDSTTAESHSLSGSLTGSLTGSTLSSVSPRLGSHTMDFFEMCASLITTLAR
Sequence (O43741 whole entry): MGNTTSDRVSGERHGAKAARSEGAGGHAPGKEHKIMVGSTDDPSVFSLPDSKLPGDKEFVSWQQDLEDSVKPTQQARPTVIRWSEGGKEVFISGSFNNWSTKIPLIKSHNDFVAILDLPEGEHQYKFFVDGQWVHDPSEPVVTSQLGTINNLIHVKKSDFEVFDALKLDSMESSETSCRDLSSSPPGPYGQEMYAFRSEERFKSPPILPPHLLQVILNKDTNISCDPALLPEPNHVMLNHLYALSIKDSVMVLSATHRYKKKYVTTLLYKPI
Sequence (P54619 whole entry): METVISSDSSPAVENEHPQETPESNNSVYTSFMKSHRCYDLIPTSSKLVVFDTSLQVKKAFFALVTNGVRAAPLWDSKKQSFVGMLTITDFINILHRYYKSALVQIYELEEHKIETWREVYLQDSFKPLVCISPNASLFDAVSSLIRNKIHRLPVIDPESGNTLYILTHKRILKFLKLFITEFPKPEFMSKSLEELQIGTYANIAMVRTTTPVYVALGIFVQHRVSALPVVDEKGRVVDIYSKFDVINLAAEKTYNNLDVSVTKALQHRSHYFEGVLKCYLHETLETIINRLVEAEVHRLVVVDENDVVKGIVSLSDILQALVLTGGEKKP
Experiment: SPR direct binding (Biacore)
Conditions: weaker site, presence of Mg2+ and 25 nM Stau, read-out: KD2
measuredMetric: Kd (µM)
Write the value in µM as a bare number.

[ask] Query Kd on BAP-tagged AMPK α2β2γ1 (Homo sapiens, UniProt O43741+P54619+P54646) for Nc1ncnc2c1ncn2[C@@H]1O[C@H](COP(=O)(O)O)[C@@H](O)[C@H]1O
[reply] 70
